# measured_target: T1, monkey TIM-3 protein with hFc tag (cTIM-3-hFc protein) (monkey; human)
# T1 construct: Made in HEK293 cells; also called monkey TIM-3 extracellular domain protein; not shown: human IgG Fc fragment (hFc) of the pCpC vector
# T1 chain: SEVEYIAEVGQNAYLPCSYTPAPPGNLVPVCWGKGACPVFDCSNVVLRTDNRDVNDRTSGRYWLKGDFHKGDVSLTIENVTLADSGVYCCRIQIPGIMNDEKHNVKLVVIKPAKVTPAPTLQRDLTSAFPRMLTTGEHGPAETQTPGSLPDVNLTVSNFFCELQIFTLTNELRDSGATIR
# protocol: ELISA, coated cTIM-3-hFc; antibody 0.6667 nM

- binder: "7A4F10 (TIM-3 antibody purified from hybridoma, chimeric antibody of Example 2) (antibody, V domains shown, From hybridoma of Harbour H2L2 transgenic mice: human variable regions, rat constant regions) VH: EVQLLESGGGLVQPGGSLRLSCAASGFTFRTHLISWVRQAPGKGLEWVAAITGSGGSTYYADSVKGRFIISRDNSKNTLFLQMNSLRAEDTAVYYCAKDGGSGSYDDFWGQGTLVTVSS VL: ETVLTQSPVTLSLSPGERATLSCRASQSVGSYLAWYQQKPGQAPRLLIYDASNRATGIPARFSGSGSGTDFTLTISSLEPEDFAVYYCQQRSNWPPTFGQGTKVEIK"
  OD450: 1.35
- binder: "57F4E5 (TIM-3 antibody purified from hybridoma, chimeric antibody of Example 2) (antibody, V domains shown, From hybridoma of Harbour H2L2 transgenic mice: human variable regions, rat constant regions) VH: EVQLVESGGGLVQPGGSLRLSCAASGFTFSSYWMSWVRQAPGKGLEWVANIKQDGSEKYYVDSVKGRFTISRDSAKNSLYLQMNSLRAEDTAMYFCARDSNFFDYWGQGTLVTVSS VL: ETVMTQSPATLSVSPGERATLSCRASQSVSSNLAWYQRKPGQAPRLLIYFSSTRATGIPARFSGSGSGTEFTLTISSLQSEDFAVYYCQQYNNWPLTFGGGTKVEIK"
  OD450: 3.45
